Attribution: ChEMBL document CHEMBL1138976

Biological target: Protein Tat (Human immunodeficiency virus type 1 group M subtype B (isolate PCV12)(HIV-1)) (UniProt P04326)
Sequence (whole entry): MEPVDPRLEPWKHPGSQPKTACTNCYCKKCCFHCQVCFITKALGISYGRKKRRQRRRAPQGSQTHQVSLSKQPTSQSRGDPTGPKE
Assay: Inhibition of Tat activity in HeLa cells transfected with Tat-Luc at 100 uM
Format: functional, cell-based
observation.type: inhibition (%)

| compound | observation.type | recorded.measurement |
| --- | --- | --- |
| Cn1nc(Cc2ccc(Cl)cc2Cl)c2ccccc2c1=O | inhibition | 14 |
| COc1ccc(CC2(O)c3ccccc3C3=NCCCN32)cc1 (configuration not stated) | inhibition | 3.8 |

1 = Cn1nc(Cc2ccccc2Cl)c2ccccc2c1=O
2 = OC1(Cc2ccc(Cl)cc2Cl)c2ccccc2C2=NCCN21 (configuration not stated)
Compare inhibition: is it lower for 1 or for 2 ? Kindly give the label for the entry you pick.
1
(1: 18.3%, 2: 86.6%)

1 = O=C1O/C(=C\c2cccc3ccccc23)c2ccccc21
2 = Cn1nc(Cc2cccc3ccccc23)c2ccccc2c1=O
Compare inhibition: is it lower for 1 or for 2 ? Kindly give the label for the entry you pick.
1

a = OC1(Cc2ccc(Cl)c(Cl)c2)c2ccccc2C2=NCCCN21 (configuration not stated)
b = Oc1nnc(Cc2ccc(Cl)c(Cl)c2)c2cc(Cl)c(Cl)cc12
Return label of the item with the larger inhibition. Candidates: a , b . Kindly give the label for the entry you pick.
a
(a: 60%, b: 28.4%)
